Test system: NCI-H23 lung
assayName: NCI-60 one-dose screen, 48 h (100 = growth as untreated, 0 = no growth, -100 = all killed)
measurementParameters: 10 µM unless noted
This is part of a sample that, as a whole, favours compounds with a hit. Of some 83,000 tested, about 20% had one in any assay.
# growth annotations
Write down the numeric answer in % and omit the unit.

The examples below pair each entry with its known result.
1) CCOC(=O)C(CCN(C)C)c1ccccc1 (centres undefined) :: 94.4
2) CCOC(=O)c1cnn(CC(C)O)c1NC(=O)NCc1ccccc1C(F)(F)F (centres undefined) :: 98.8
3) CCCCn1c(NC(C)=O)c(S(=O)(=O)c2ccccc2)c2nc3ccccc3nc21 :: 94
4) C=C[C@@]1(C)CC(=O)[C@@H](C(C)(C)c2cn(C)c3ccc(Br)cc23)C[C@@H]1O[Si](C)(C)C(C)(C)C :: 98.3
5) COc1ccc(-c2cc(C(=O)N3N=C(c4ccc(N)cc4)CC3c3ccc(Cl)cc3)c3cc(OC)ccc3n2)cc1 (centres undefined) :: 67.6
6) COC(=O)/C(CCC=C(C)C)=C1\[C@@H](OC(C)=O)C[C@@]2(C)[C@H]1C/C(=N/O)[C@H]1[C@@]3(C)CC/C(=N\O)[C@@H](C)[C@@H]3CC[C@@]12C :: 99.5
7) Clc1cccc(C2Cc3cnccc3-c3[nH]c4ccncc4c32)c1 (centres undefined) :: 35
8) O=C(Nc1cccnc1Nc1ccc(Cl)cc1)c1cn(Cc2cccc(Oc3ccccc3)c2)nn1 :: 63

growth recorded for this molecule, COC(=O)c1sccc1-c1cc(O)c(C(=O)Nc2ccccc2)s1 , is 83
